System: brain
Assay: Matured TTM-001 and TTM-002 variants, NGS enrichment in mouse brain
Assay type: in vivo, mice
Settings: NGS fold-enrichment, mouse brain, relative to AAV9 control
Parameter class (string): assigned from measured Fold Enrichment relative to AAV9, Brain (Mouse). Ranges: bucket 1: < 10 fold; bucket 2: ≥ 10 fold and < 70 fold; bucket 3: ≥ 70 fold

KTELRHDSPHKSGQNQQT: bucket 1
KTSNGSGSPHSKAQNPPT: bucket 2
KATNGSGSPHSKAQNHQT: bucket 2
KTINGGGSPHSKAQTQQI: bucket 2
KTERASGSPHSKAQNQQT: bucket 3
KTTNGQDSPHKSGQNQQS: bucket 1

---

Test system: brains, heart, liver, muscle, and DRG of the NHPs
Assay: Maturation of TTM-001 and TTM-002 capsids, NGS enrichment in NHP tissues
Assay type: in vivo
Conditions: NGS fold-enrichment of matured AAV capsid variants; NHP brain, RNA; relative to AAV9 control
Recorded Fold Enrichment relative to AAV9, Brain (NHP) for the following sequences
parameter-measured: Fold Enrichment relative to AAV9, Brain (NHP)

KTINGSGSPHSKRLEQQT: 53.512 fold
KTDVNSGSPHSKAQNQQT: 57.593 fold
KTIDGSGSPHSKALNKQT: 58.992 fold
KNSIGSGSPHSKAQNQQT: 57.101 fold
KTDRTSGSPHSKAQNQQT: 56.466 fold
KTVNGSGSPHSKAQDKQT: 51.580 fold
KTEQTSGSPHSKAQNQQT: 56.683 fold
KTINGSGSPHSKAQKVIT: 53.273 fold
KTNNGGGSPHSKAQNLQT: 54.963 fold
KTVHGSGSPHSKAQSQQT: 51.057 fold
KTINGSGSPHSKAQYSVT: 57.130 fold
KTINGSGSPHSKAGDSQT: 50.457 fold
KTINGSGSPHSKAQRDIT: 52.415 fold
KTINGSGSPHSKAPSMQT: 50.249 fold
KTINGSGSPHSKALMRQT: 57.234 fold
KTINGSGSPHSKTQNHQN: 55.551 fold
KSDIGSGSPHSKAQNQQT: 57.592 fold
KEVVGSGSPHSKAQNQQT: 56.371 fold
KTDRSSGSPHSKAQNQQT: 52.737 fold
KTINGSGSPHSYHVNQQT: 50.486 fold
KTINGSGSPHSKARGLQT: 52.275 fold
KTVPTSGSPHSKAQNQQT: 51.348 fold
KTINGSGSPHSKAQVQQI: 57.308 fold
KTWQNSGSPHSKAQNQQT: 55.245 fold
KTINGSGSPHSKAQGHHT: 56.559 fold
KTINGSGSPHSKAPSLQT: 52.137 fold
KTEPMSGSPHSKAQNQQT: 50.960 fold
KTINGSGSPHSKAQMPST: 54.986 fold
KTEVTSGSPHSKAQNQQT: 54.663 fold
KTVNGSGSPHSKAQHLQT: 55.739 fold
KTINGNGSPHSKSQNQHT: 51.379 fold
KQGEGSGSPHSKAQNQQT: 58.752 fold

---

Recorded Fold Enrichment relative to AAV9, Heart (NHP) for the following sequences
System: brains, heart, liver, muscle, and DRG of the NHPs
Assay: Maturation of TTM-001 and TTM-002 capsids, NGS enrichment in NHP tissues
Format: in vivo
Settings: NGS fold-enrichment, heart of NHPs, relative to AAV9 control
Source text: This Example describes maturation of the AAV9 capsid variants, TTM-001 (SEQ ID NO: 981 (amino acid) and 983 (DNA), comprising SEQ ID NO: 941 (encoded by SEQ ID NO: 942)) and TTM-002 (SEQ ID NO: 982 (amino acid) and 984 (DNA), comprising SEQ ID NO: […] (encoded by SEQ ID NO: 944)) in NHPs to further enhance their transduction and biodistribution in the central nervous system as well as other tissues, and evolve the AAV capsid variants to provide further cross-species compatibility. […]
parameter-measured: Fold Enrichment relative to AAV9, Heart (NHP) (fold)

KTANGSGSPHSKAQYQQT: 0.000
KTERVSGSPHSKAQNQQT: 0.000
KTINGSGSPHSKAQAIKT: 0.000
KTINGSGSPHSKAQERPT: 0.011
KTEKGSGSPHSKAQNQQT: 0.031
KTDLKSGSPHSKAQNQQT: 0.000
NTINGSGSPHSKAQNQQT (peptide inserted in AAV capsid): 1.261
KTIPIDGSPHSKAQNQQT: 0.047
KTENMSGSPHSKAQNQQT: 0.000
KTINGSVSPHGKAQNQLT (peptide inserted in AAV capsid): 0.061
KAINGSGSPHSKAQDQET: 0.000
KTINGGGSPHSKAQNQQC: 0.000
KTEARSGSPHSKAQNQQT: 0.000
KTFNASGSPHSKAPNQQT: 0.000
KTDRGSGSPHSKAQNQQT: 0.004
KTVKGSGSPHSKAQDQQT: 0.041
KTIIGGGSPHSKAHNQQT: 0.050
KTDKSSGSPHSKAQNQQT: 0.012
KTINGSGSPHSKSQNVQT: 0.190
KTIDGSGSPHSKAQNQQH: 0.000
KTFNGSGSPHSKAPNLQT: 0.167
KTTNGSGSPHSKAQYQHT: 0.000
KTINGSGSPHSKAHNQQR: 0.486
KSINGSGSPHSKAQAQQT: 0.711
KTVNGSGSPHSKARDQQT: 0.039
KNINGGGSPHSKAQNQQT: 0.042
KTSYGNGSPHSKAQNQQT: 0.000
KTEKNSGSPHSKAQNQQT: 0.000
KTFNGSGSPHNKAQNHQT: 0.000
KTINGSGSPHSKAQPAKT: 0.000
KTINGSGSPHTKAQNPQS: 0.000
KAIKGSGSPHSKAQDQQT: 0.000
KTERISGSPHSKAQNQQT: 0.000
KTESASGSPHSKAQNQQT: 0.000
KTINGSGSPHSKAHVRQT: 0.000
KTINGSGSPHSKALHQHT: 0.052
KTEKSSGSPHSKAQNQQT: 0.016
